- Tested on: 362531-283-R-J2-PDC complex spheroid viability;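 note: spheroids exposed to the agents for 7 days before readout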
- Procedure Text: Anticancer human tumor 362531-283-R-J2-PDC patient-derived colon adenocarcinoma cell line growth inhibition [RAS]
- Setup Conditions: second compound 1 µM; first compound 10 µM; stronger effect = lower value
Hi! Could you tag entries with viability, T/C below 50% as Met, and those at or above as Not met? Much appreciated.

Consider the worked cases shown below.
Compound	Group Label
Cc1nc(N2CCC3(CC2)COC(C)C3N)c(CO)nc1Sc1ccnc(N)c1Cl (centres undefined) + C=CC(=O)N1CCN(c2nc(OCC3CCCN3C)nc3c(F)c(-c4nc(N)cc(C)c4C(F)(F)F)c(Cl)cc23)C(C)C1	Not met
CC(Nc1ccc2c(c1)OCCn1cc(N3C(=O)OCC3C(F)F)nc1-2)C(N)=O (centres undefined) + C#Cc1c(F)ccc2cc(O)cc(-c3ncc4c(N5CC6CCC(C5)N6)nc(OCC56CCCN5CC(F)C6)nc4c3F)c12	Met

QUERY: Does this compound meet the criterion viability, T/C < 50%? CC(Nc1ccc2c(c1)OCCn1cc(N3C(=O)OCC3C(F)F)nc1-2)C(N)=O (centres undefined) + C=CC(=O)N1CCN(c2nc(OCC3CCCN3C)nc3c(F)c(-c4nc(N)cc(C)c4C(F)(F)F)c(Cl)cc23)C(C)C1
RESULT: Met

QUERY: Just wondering, is viability, T/C of CC1(O)CCCC1n1c(=O)c(C(F)F)cc2cnc(NC3CCN(S(C)(=O)=O)CC3)nc21 (centres undefined) + C#Cc1c(F)ccc2cc(O)cc(-c3ncc4c(N5CC6CCC(C5)N6)nc(OCC56CCCN5CC(F)C6)nc4c3F)c12 below 50%?
RESULT: Met

QUERY: Item CC(=O)OC12COC1CC(O)C1(C)C(=O)C(O)C3=C(C)C(OC(=O)C(O)C(NC(=O)OC(C)(C)C)c4ccccc4)CC(O)(C(OC(=O)c4ccccc4)C21)C3(C)C (centres undefined) + C=CC(=O)N1CCN(c2nc(OCC3CCCN3C)nc3c(F)c(-c4nc(N)cc(C)c4C(F)(F)F)c(Cl)cc23)C(C)C1 : viability, T/C beneath 50%, strictly?
RESULT: Met

QUERY: Below 50% on viability, T/C? Entry C[C@@H](NC(=O)c1ncnc(N)c1Cl)c1ncc(C(=O)Nc2cc(C(F)(F)F)c(Cl)cn2)s1 + C#Cc1c(F)ccc2cc(O)cc(-c3ncc4c(N5CC6CCC(C5)N6)nc(OCC56CCCN5CC(F)C6)nc4c3F)c12
RESULT: Not met

QUERY: Take the compound CC1(O)CCCC1n1c(=O)c(C(F)F)cc2cnc(NC3CCN(S(C)(=O)=O)CC3)nc21 (centres undefined) + C=CC(=O)N1CCN(c2nc(OCC3CCCN3C)nc3c(F)c(-c4nc(N)cc(C)c4C(F)(F)F)c(Cl)cc23)C(C)C1 and say whether its viability, T/C is less than 50%.
RESULT: Not met

QUERY: Find out if reported viability, T/C for CC(C)NCC(C(=O)N1CCN(c2ncnc3c2C(C)CC3O)CC1)c1ccc(Cl)cc1 (centres undefined) + C=CC(=O)N1CCN(c2nc(OCC3CCCN3C)nc3c(F)c(-c4nc(N)cc(C)c4C(F)(F)F)c(Cl)cc23)C(C)C1 is less than 50%
RESULT: Not met

QUERY: In plain terms, does CC(=O)OC12COC1CC(O)C1(C)C(=O)C(O)C3=C(C)C(OC(=O)C(O)C(NC(=O)OC(C)(C)C)c4ccccc4)CC(O)(C(OC(=O)c4ccccc4)C21)C3(C)C (centres undefined) + C#Cc1c(F)ccc2cc(O)cc(-c3ncc4c(N5CC6CCC(C5)N6)nc(OCC56CCCN5CC(F)C6)nc4c3F)c12 come in under 50% for viability, T/C?
RESULT: Met
